Data origin: patent US10214522B2

Target: αvβ1 integrin (UniProt G3HZ55+P06756)
Sequence (P06756 31-889 limits assumed): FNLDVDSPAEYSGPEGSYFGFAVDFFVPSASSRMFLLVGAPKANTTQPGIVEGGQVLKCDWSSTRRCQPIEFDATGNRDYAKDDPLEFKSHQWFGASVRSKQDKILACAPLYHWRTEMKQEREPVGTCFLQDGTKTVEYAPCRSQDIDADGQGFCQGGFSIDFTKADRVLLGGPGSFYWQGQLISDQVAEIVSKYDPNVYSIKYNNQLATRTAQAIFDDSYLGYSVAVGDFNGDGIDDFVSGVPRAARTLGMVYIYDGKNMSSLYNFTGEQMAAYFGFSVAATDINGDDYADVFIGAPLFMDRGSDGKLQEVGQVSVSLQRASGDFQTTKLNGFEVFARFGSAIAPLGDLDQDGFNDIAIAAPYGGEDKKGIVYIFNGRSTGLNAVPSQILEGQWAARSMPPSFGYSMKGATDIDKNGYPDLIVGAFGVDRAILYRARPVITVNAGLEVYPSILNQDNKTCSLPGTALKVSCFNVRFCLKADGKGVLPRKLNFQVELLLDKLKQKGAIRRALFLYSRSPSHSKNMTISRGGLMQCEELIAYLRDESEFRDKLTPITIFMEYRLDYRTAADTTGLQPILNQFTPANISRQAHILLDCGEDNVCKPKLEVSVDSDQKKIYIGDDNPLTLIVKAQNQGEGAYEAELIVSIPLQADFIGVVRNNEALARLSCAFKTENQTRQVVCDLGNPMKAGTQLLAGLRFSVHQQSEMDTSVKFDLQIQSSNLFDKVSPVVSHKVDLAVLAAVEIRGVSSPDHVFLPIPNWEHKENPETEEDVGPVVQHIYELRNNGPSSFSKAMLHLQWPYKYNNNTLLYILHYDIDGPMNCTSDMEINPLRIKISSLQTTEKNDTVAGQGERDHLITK
Sequence (P06756 891-1048 limits assumed): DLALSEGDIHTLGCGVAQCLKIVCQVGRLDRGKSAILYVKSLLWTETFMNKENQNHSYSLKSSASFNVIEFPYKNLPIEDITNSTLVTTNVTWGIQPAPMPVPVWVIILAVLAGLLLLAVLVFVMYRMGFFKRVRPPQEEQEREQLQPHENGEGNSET
Sequence (G3HZ55 21-798): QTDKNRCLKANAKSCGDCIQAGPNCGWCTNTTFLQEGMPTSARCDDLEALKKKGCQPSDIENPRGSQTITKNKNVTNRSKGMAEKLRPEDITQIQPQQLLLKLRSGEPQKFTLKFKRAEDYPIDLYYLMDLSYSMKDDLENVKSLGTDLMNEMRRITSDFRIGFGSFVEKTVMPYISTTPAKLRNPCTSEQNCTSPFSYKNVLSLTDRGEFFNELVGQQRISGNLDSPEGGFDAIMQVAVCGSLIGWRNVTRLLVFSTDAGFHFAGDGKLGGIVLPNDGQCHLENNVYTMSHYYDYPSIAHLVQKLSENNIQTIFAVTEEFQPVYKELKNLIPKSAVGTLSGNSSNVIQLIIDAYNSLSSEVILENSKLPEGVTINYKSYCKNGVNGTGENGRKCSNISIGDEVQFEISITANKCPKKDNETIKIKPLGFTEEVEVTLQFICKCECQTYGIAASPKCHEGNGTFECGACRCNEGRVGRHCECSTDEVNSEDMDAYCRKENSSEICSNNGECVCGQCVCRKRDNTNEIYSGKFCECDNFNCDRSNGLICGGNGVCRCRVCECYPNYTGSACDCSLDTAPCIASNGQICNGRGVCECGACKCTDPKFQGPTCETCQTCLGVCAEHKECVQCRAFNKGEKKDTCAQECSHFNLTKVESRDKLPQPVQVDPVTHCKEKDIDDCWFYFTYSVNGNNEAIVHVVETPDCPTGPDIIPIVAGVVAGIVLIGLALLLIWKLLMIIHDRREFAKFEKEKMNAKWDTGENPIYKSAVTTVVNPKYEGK
Assay: Cell Adhesion Assay (integrin-specific adhesion, αvβ1)
Conditions: CHO cells transfected with human αv adhering to 0.3 μg/ml fibronectin; read-out: Cell Adhesion Assay IC50 range
pIC50: −log10 of the molar value.
The entries below are paired with their reported pIC50.

Worked cases, pIC50 given:
N=C(N)NCCc1cn(-c2ccc(C[C@H](NC(=O)c3c(Cl)cccc3Cl)C(=O)O)cc2)nn1 [JM-39]    5.00 to 7.00
O=C(CCCCNC1=NCCN1)Nc1ccc(C[C@H](NC(=O)c2c(Cl)cccc2Cl)C(=O)O)cc1 [JM-61]    5.00 to 7.00
N=C(N)NCCCn1cc(-c2ccc(C[C@H](NC(=O)c3c(Cl)cccc3Cl)C(=O)O)cc2)nn1 [JM-141]    > 7.00

Okay, next one:
Input line: Given the entry Cc1ccnc(NCCCC(=O)Nc2ccc(C[C@H](NC(=O)c3c(Cl)cccc3Cl)C(=O)O)cc2)c1 [HU-899] , report its measured pIC50.
Output line: > 7.00

###

Target: αvβ1 integrin (UniProt G3HZ55+P06756)
Experiment: Cell Adhesion Assay (integrin-specific adhesion, αvβ1)
Conditions: CHO cells transfected with human αv adhering to 0.3 μg/ml fibronectin; read-out: Cell Adhesion Assay IC50 range
value kind: IC50

Worked cases, IC50 given:
O=C(CCCc1ccc2c(n1)NCCC2)Nc1ccc(C[C@H](NC(=O)c2c(Cl)cccc2Cl)C(=O)O)cc1    100 to 10000 nM
O=C(N[C@@H](Cc1ccc(-n2cc(CNc3ccccn3)nn2)cc1)C(=O)O)c1c(Cl)cccc1Cl    100 to 10000 nM
O=C(CCCNc1ccccn1)Nc1ccc(C[C@H](NC(=O)c2cccc(-c3ccccc3)c2)C(=O)O)cc1    100 to 10000 nM
N=C(N)NCCCC(=O)Nc1ccc(C[C@H](NC(=O)c2c(Cl)cccc2Cl)C(=O)O)cc1    100 to 10000 nM
O=C(CCCCc1ccc2c(n1)NCCC2)Nc1ccc(C[C@H](NC(=O)c2c(Cl)cccc2Cl)C(=O)O)cc1    100 to 10000 nM

Input line: # returns recorded IC50 (system: αvβ1 integrin (UniProt G3HZ55+P06756)) for O=C(CCCNc1ccccn1)Nc1ccc(C[C@H](NC(=O)c2c(Cl)cccc2Cl)C(=O)O)cc1
Output line: < 100 nM

Input line: # returns recorded IC50 (system: αvβ1 integrin (UniProt G3HZ55+P06756)) for COc1cccc(OC)c1C(=O)N[C@@H](Cc1ccc(NC(=O)CCCNc2ccccn2)cc1)C(=O)O
Output line: 100 to 10000 nM

Input line: # returns recorded IC50 (system: αvβ1 integrin (UniProt G3HZ55+P06756)) for N=C(N)NCCCc1coc(-c2ccc(C[C@H](NC(=O)c3c(Cl)cccc3Cl)C(=O)O)cc2)n1
Output line: 100 to 10000 nM

Input line: # returns recorded IC50 (system: αvβ1 integrin (UniProt G3HZ55+P06756)) for O=C(CCCCNc1ccccn1)Nc1ccc(C[C@H](NC(=O)c2c(Cl)cccc2Cl)C(=O)O)cc1
Output line: 100 to 10000 nM

Input line: # returns recorded IC50 (system: αvβ1 integrin (UniProt G3HZ55+P06756)) for O=C(CCc1ccc2c(n1)NCCC2)Nc1ccc(C[C@H](NC(=O)c2c(Cl)cccc2Cl)C(=O)O)cc1
Output line: < 100 nM

Input line: # returns recorded IC50 (system: αvβ1 integrin (UniProt G3HZ55+P06756)) for N=C(N)Nc1ccc2c(c1)C(=O)N(c1ccc(C[C@H](NC(=O)c3c(Cl)cccc3Cl)C(=O)O)cc1)CC2
Output line: 100 to 10000 nM

Input line: # returns recorded IC50 (system: αvβ1 integrin (UniProt G3HZ55+P06756)) for CSc1ccccc1C(=O)N[C@@H](Cc1ccc(NC(=O)CCCNc2ccccn2)cc1)C(=O)O
Output line: 100 to 10000 nM

###

Target: αvβ1 integrin (UniProt G3HZ55+P06756)
Assay: Cell Adhesion Assay (integrin-specific adhesion, αvβ1)
Details: CHO cells transfected with human αv adhering to 0.3 μg/ml fibronectin; read-out: Cell Adhesion Assay IC50 range
value kind: IC50

Worked cases, IC50 given:
N=C(N)NCCCc1csc(-c2ccc(C[C@H](NC(=O)c3c(Cl)cccc3Cl)C(=O)O)cc2)n1    0.1 to 10 µM
Cc1cccc(Cl)c1C(=O)N[C@@H](Cc1ccc(NC(=O)CCCNc2ccccn2)cc1)C(=O)O    0.1 to 10 µM
O=C(CCCNc1ccccn1)Nc1ccc(C[C@H](NC(=O)c2c(F)cccc2Br)C(=O)O)cc1    < 0.1 µM

Okay, next one:
Input line: Given the entry Cc1cccc(C)c1C(=O)N[C@@H](Cc1ccc(NC(=O)CCCNc2ccccn2)cc1)C(=O)O , report its measured IC50.
Output line: < 0.1 µM
